Conditions: in 2-ethoxyethanol, 288.15 K
property-measured: solubility (mole fraction)
Provide a numeric answer; units are not to be included.

Prompt: Data request, read-out solubility (mole fraction), for CCc1cc(C(N)=S)ccn1
Response: 0.0289

---

Conditions: in NMP, 318.15 K
property-measured: solubility (mole fraction)

Prompt: Data request, read-out solubility (mole fraction), for CCc1cc(C(N)=S)ccn1
Response: 0.265

---

Conditions: in isopropanol, 288.15 K
property-measured: solubility (mole fraction)

Prompt: Data request, read-out solubility (mole fraction), for CCc1cc(C(N)=S)ccn1
Response: 0.0042

---

Conditions: in 2-methoxyethanol, 288.15 K
property-measured: solubility (mole fraction)
Provide a numeric answer; units are not to be included.

Prompt: Data request, read-out solubility (mole fraction), for CCc1cc(C(N)=S)ccn1
Response: 0.0441

---

Conditions: in ethyl acetate, 298.15 K
property-measured: solubility (mole fraction)
Provide a numeric answer; units are not to be included.

Prompt: Data request, read-out solubility (mole fraction), for CCc1cc(C(N)=S)ccn1
Response: 0.0171

---

Details: in DMF, 308.15 K
property-measured: solubility (mole fraction)
Provide a numeric answer; units are not to be included.

Prompt: Data request, read-out solubility (mole fraction), for CCc1cc(C(N)=S)ccn1
Response: 0.167

---

Details: in 2-ethoxyethanol, 313.15 K
property-measured: solubility (mole fraction)
Provide a numeric answer; units are not to be included.

Prompt: Data request, read-out solubility (mole fraction), for CCc1cc(C(N)=S)ccn1
Response: 0.0596

---

Settings: in acetone, 313.15 K
property-measured: solubility (mole fraction)
Provide a numeric answer; units are not to be included.

Prompt: Data request, read-out solubility (mole fraction), for CCc1cc(C(N)=S)ccn1
Response: 0.0172

---

Conditions: in methanol, 308.15 K
property-measured: solubility (mole fraction)
Provide a numeric answer; units are not to be included.

Prompt: Data request, read-out solubility (mole fraction), for CCc1cc(C(N)=S)ccn1
Response: 0.0159
